# tgt: CRAC channel (Homo sapiens)
# Construct: endogenous in cells; host or cells: HEK293 (ECACC), untransfected
# Sequence (Q96D31 whole entry): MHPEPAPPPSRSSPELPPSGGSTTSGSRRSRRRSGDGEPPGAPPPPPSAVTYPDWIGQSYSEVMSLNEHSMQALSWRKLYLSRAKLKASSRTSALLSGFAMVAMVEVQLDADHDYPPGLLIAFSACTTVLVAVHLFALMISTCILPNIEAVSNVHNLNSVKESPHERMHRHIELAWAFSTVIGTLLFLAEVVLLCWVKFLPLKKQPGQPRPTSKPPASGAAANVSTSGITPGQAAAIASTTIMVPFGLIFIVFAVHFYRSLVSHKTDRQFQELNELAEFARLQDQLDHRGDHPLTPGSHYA
# test.description: HEK Calcium Influx Assay (FLIPR), inhibition of store-operated Ca2+ entry after thapsigargin store depletion
# Type: cell-based
# study.conditions: 10 μM compound, HEK293 cells, read-out: % inhib. [@ 10 μM] FLIPR
Measured inhibition at 10 µM accompanies every entry in the list below.
assay.readout: inhibition at 10 µM

Cc1cc(S(=O)(=O)N2CCC2)ccc1N1CCc2[nH]c(-c3c(F)cccc3F)cc2C1 :: < 50%
Cc1cc(S(C)(=O)=O)ncc1N1CCc2[nH]c(-c3ccc(F)cc3F)cc2C1 :: > 70%
Cc1cc(N2CCc3[nH]c(-c4c(F)cccc4Cl)cc3C2)n(C)n1 :: > 70%
Cc1sccc1N1CCc2[nH]c(-c3c(F)cccc3F)cc2C1 :: > 70%
CCn1nc(C2(C(F)(F)F)CC2)cc1N1CCc2[nH]c(-c3c(F)cccc3F)cc2C1 :: < 50%
CCc1sc(-c2cccnc2)nc1N1CCc2[nH]c(-c3c(F)cccc3F)cc2C1 :: < 50%
Cc1sccc1N1CCc2[nH]c(-c3c(F)cccc3F)cc2C1=O :: > 70%
O=C1c2cc(-c3c(F)cccc3Cl)[nH]c2CCN1c1c(F)cccc1F :: > 70%
Cn1nc(C2CC2)cc1N1CCc2[nH]c(-c3c(F)cccc3F)cc2C1 :: > 70%
Cc1sc(-c2cccnc2)nc1N1CCc2[nH]c(-c3c(F)cccc3F)cc2C1 :: > 70%
Cc1cc(C#N)ccc1N1CCc2[nH]c(-c3c(F)cccc3F)cc2C1 :: 50 to 70%
Cc1cc2c(cc1N1CCc3[nH]c(-c4c(F)cccc4F)cc3C1)OC(F)(F)O2 :: < 50%
Cc1cc(Cl)ncc1N1CCc2[nH]c(-c3ccc(F)cc3F)cc2C1=O :: 50 to 70%
Cc1cc(CS(C)(=O)=O)ncc1N1CCc2[nH]c(-c3c(F)cccc3F)cc2C1 :: > 70%
CNS(=O)(=O)c1ccc(N2CCc3[nH]c(C4CCCCC4)cc3C2)c(C)c1 :: < 50%
CNS(=O)(=O)c1ccc(N2CCc3[nH]c(C4CCC(F)(F)CC4)cc3C2)c(C)c1 :: < 50%
Cc1cc(S(C)(=O)=O)ncc1N1CCc2[nH]c(-c3c(F)cccc3F)c(Br)c2C1 :: 50 to 70%
Cc1cc(S(C)(=O)=O)ncc1N1CCc2[nH]c(-c3ccccc3F)cc2C1 :: > 70%
Cc1cc(C)c(-c2cc3c([nH]2)CCN(c2cnc(C(F)(F)F)cc2C)C3)cn1 :: < 50%
Fc1cccc(F)c1-c1cc2c([nH]1)CCN(c1cc3c(cc1Cl)OC(F)(F)O3)C2 :: < 50%
CCOc1cc(C(F)(F)F)c(N2CCc3[nH]c(-c4c(F)cccc4F)cc3C2)cn1 :: < 50%
Cc1cc(S(C)(=O)=O)ncc1N1CCc2[nH]c(-c3c(F)cccc3F)c(F)c2C1 :: > 70%
Fc1cccc(F)c1-c1cc2c([nH]1)CCN(c1cccc(C(F)(F)F)c1)C2 :: < 50%
Cc1sc(-c2cccnc2)nc1N1CCc2[nH]c(-c3ccc(Cl)nc3)cc2C1=O :: 50 to 70%
Cn1nc(C(F)(F)F)cc1N1CCc2[nH]c(-c3c(F)cccc3F)cc2C1 :: > 70%
COC1(c2cc(N3CCc4[nH]c(-c5c(F)cccc5F)cc4C3)n(C)n2)CC1 :: > 70%
Cc1cc(Cl)ncc1N1CCc2[nH]c(-c3c(F)cccc3Cl)cc2C1=O :: > 70%
Cc1cc(S(=O)(=O)N2CCCC2)ccc1N1CCc2[nH]c(-c3c(F)cccc3F)cc2C1 :: > 70%
CCNS(=O)(=O)c1ccc(N2CCc3[nH]c(-c4c(F)cccc4F)cc3C2)c(C)c1 :: < 50%
Cc1cc(C)c(-c2cc3c([nH]2)CCN(c2cnc(S(C)(=O)=O)cc2C)C3)cn1 :: > 70%
Cc1cc(C2CC2)ncc1N1CCc2[nH]c(-c3c(F)cccc3F)cc2C1 :: > 70%
Cc1cc(S(C)(=O)=O)c(F)cc1N1CCc2[nH]c(C3CCCCC3)cc2C1 :: < 50%
Cc1cc(C#N)cnc1N1CCc2[nH]c(-c3c(F)cccc3F)cc2C1 :: > 70%
Cc1sc(C2CC2)nc1N1CCc2[nH]c(-c3c(F)cccc3F)cc2C1=O :: > 70%
